Target: norepinephrine transporter (NET, SLC6A2) (Homo sapiens, UniProt P23975)
Construct: purchased Eurofins Cerep SA
Sequence (P23975 whole entry): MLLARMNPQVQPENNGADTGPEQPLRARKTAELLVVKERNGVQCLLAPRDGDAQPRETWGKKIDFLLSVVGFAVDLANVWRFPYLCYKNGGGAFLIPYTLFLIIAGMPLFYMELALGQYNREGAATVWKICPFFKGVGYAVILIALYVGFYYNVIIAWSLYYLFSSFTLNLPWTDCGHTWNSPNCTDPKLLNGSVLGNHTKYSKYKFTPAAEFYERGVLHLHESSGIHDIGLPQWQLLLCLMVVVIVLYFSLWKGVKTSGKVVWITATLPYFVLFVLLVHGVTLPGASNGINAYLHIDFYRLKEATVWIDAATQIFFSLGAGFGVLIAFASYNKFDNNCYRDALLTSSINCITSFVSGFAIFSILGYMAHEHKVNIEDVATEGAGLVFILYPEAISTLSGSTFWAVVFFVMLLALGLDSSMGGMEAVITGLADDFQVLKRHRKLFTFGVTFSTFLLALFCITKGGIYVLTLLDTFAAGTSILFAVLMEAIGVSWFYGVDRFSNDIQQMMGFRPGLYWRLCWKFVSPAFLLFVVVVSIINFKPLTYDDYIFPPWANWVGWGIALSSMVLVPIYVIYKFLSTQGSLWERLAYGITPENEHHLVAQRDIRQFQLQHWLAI
Test: radioligand displacement assay on NET (Eurofins Cerep SA)
Assay type: binding
Details: read-out: % Inhibition @ 100 nM on NET
Kindly supply the reported inhibition at 0.1 µM values for the records listed here.
Please respond with the number in % and leave the unit unwritten.

Sample Clc1ccccc1CN1CCCC[C@H]2NCC[C@H]21 [(R,R)-60] — what was its inhibition at 0.1 µM?
83.4

Again, but for Clc1cccc(CN2CCCC[C@H]3NCC[C@H]32)c1 [(R,R)-59]
97.1

Again, but for Clc1ccc(CN2CCCC[C@H]3NCC[C@H]32)cc1 [(R,R)-58]
6.4

Again, but for Brc1cccc(CN2CCCC[C@H]3NCC[C@H]32)c1 [(R,R)-61]
91.4

====

Biological target: serotonine (5-HT) transporter (SERT, SLC6A4) (Homo sapiens)
Construct: purchased Eurofins Cerep SA
Sequence (P31645 whole entry): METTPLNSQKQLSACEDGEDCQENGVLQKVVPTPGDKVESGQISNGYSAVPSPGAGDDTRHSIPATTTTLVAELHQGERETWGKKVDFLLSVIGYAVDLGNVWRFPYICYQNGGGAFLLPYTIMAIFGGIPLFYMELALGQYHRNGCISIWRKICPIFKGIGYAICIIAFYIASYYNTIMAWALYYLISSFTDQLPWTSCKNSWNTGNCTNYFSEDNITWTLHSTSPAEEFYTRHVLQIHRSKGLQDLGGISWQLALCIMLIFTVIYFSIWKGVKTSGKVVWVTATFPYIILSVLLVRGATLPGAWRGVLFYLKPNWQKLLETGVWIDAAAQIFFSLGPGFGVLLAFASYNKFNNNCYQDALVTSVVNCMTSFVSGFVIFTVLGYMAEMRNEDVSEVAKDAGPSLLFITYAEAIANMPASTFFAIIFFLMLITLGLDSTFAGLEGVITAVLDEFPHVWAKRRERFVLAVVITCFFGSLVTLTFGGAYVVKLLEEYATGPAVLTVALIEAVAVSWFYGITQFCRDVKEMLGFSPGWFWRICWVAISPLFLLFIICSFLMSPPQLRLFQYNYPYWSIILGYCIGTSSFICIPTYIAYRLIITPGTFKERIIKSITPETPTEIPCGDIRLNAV
Experiment: radioligand displacement assay on SERT (Eurofins Cerep SA)
Format: binding
Details: read-out: % Inhibition @ 10 µM on SERT
Kindly supply the reported inhibition at 10 µM values for the records listed here.
Please respond with the number in % and leave the unit unwritten.

Please provide the recorded inhibition at 10 µM for C1CC[C@@H]2NCC[C@H]2NC1 (relative stereo) [2b, Decahydropyrrolo[3,2-b]azepine] , tested on serotonine (5-HT) transporter (SERT, SLC6A4) (Homo sapiens).
-1.9

Again, but for c1ccc(CN2CCCC[C@H]3NCC[C@H]32)cc1 [(R,R)-1a]
95.9

Again, but for c1ccc(CN2CC[C@H]3NCCCC[C@H]32)cc1 (relative stereo) [17a, 1-Benzyldecahydropyrrolo[3,2-b]azepine]
21.4

Again, but for c1ccc(CN2CCCC[C@H]3NCCC[C@H]32)cc1 [40a]
91

Again, but for C1CCC2NCCCCC2NC1 (centres unmarked) [4b, Dodecahydroazepino[3,2-b]azepine]
-1

Again, but for c1ccc(CN2CCCC[C@@H]3NCC[C@@H]32)cc1 [(S,S)-1a]
91

Again, but for C1CC[C@H]2NCC[C@H]2NC1 (relative stereo) [2a, Decahydropyrrolo[3,2-b]azepine]
7.6

Again, but for c1ccc(CN2CC[C@H]3NCCCC[C@@H]32)cc1 (relative stereo) [17b, 1-Benzyldecahydropyrrolo[3,2-b]azepine]
13.7

Again, but for c1ccc(CN2CCCC[C@@H]3NCC[C@H]32)cc1 [1b, 4-Benzyldecahydropyrrolo[3,2-b]azepine]
68.6

Again, but for c1ccc(CN2CCC[C@H]3NCCCC[C@H]32)cc1 (relative stereo) [27a]
87.7

Again, but for c1ccc(CN2CCCC[C@@H]3NCCC[C@H]32)cc1 [40b]
71

Again, but for C1CC[C@@H]2NCCC[C@H]2NC1 (relative stereo)
11.8

Again, but for c1ccc(CN2CCCC[C@@H]3NCCCC[C@H]32)cc1 [44b, 6-Benzyldodecahydroazepino[3,2-b]azepine]
59.4

Again, but for c1ccc(CN2CCC[C@H]3NCCCC[C@@H]32)cc1 (relative stereo) [27b]
6.9

====

Kindly supply the reported inhibition at 10 µM values for the records listed here.
Target: norepinephrine transporter (NET, SLC6A2) (Homo sapiens, UniProt P23975)
Construct: purchased Eurofins Cerep SA
Test: radioligand displacement assay on NET (Eurofins Cerep SA)
Assay type: binding
Conditions: read-out: % Inhibition @ 10 µM on NET
Please respond with the number in % and leave the unit unwritten.

Sample C1CC[C@@H]2NCCC[C@H]2NC1 (relative stereo) [3b] — what was its inhibition at 10 µM?
8.8

Again, but for c1ccc(CN2CCCC[C@@H]3NCCCC[C@H]32)cc1 [44b, 6-Benzyldodecahydroazepino[3,2-b]azepine]
31.5

Again, but for c1ccc(CN2CC[C@H]3NCCCC[C@H]32)cc1 (relative stereo) [17a, 1-Benzyldecahydropyrrolo[3,2-b]azepine]
21.7
